Molecular target: T1, human CD115 extracellular domain (Sino Biological 10161-H08H) (human, UniProt P07333 20-517)
T1 construct: extracellular domain; bought recombinant protein; also called huCD115; hu-CD115
Assay: competition ELISA, competitor TMR 24A;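 note: clonal anti-huCD115 hybridoma supernatant antibodies bound with a competitor mouse antibody present, and failure to bind puts a clone in that competitor's epitope bin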;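 note: low signal means same epitope bin as the mouse competitor antibody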
Would you mind telling me the reported signal vs NO COMP=100 of each entry?
Answers are plain numbers, in %.

# binder, unit label, test value
data = [
    ("CCK-464A (antibody, V domains shown, AlivaMab chimeric IgG, human kappa LC) VH: EVQLVESGGGLVKPGGSLRLSCAASGFTFSSYNMNWVRQAPGKGLEWVSSISSSSTYIYYADSLKGRFTISRDNAMNSLYLQMSSLRAEDTAVYYCARDSGTYPYYYFGMDVWGQGTTVTVSS VL: DIQLTQSPSFLSASVGDRVTITCRASQGISSYLAWYQQKPGKAPKLLIYAASTLQSGVPSRFSGSGSGTEFTLTISSLQPEDFATYYCQQLNTYPRTFGQGTKVEIK", "%", 39),
    ("CCK-417A (antibody, V domains shown, AlivaMab chimeric IgG, human kappa LC) VH: QVTLRESGPALVKPTQTLTLTCTFSGFSLSTSGMCVSWIRQPPGKALECLALIDWDDDKYYSTSLKTRLTISKDTSKNQVVLTMTNMDPVDTATYYCARTQLGIADYWGQGTLVTVSS VL: AIRMTQSPSSFSASTGDRVTITCRASQGISSYLAWYQQKPGKAPKLLIYAASTLQSGVPSRFSGSGSGTDFTLTISCLQSEDFATYYCQQYYSYPFTFGPGTKVDIK", "%", 6),
]

// switching to the query binder
Identify measured signal vs NO COMP=100 corresponding to CCK-424A (antibody, V domains shown, AlivaMab chimeric IgG, human kappa LC) VH: QVQLQESGPGLVKPSETLSLTCTVSGGSISSYYWSWIRQPPGKVLEWIGYFSYNGNTNYNPSLKSRVTISVDTSKNQFSLKLSSVTAADTAVYYCTRGMDVWGQGTTVTVSS VL: DIQMTQSPSTLSASVGDRVTITCRASQSISDWLAWYLQKPGKAPKLLIYKASSLESGVPSRFSGSGSGTAFTLTISSLQPDDFATYYCQQYNSHWTFGQGTKVEIK 29
